TARGET SYSTEM: m-calpain (Rattus norvegicus, UniProt Q07009)
Construct: m-calpain was purified from rat brain; from tissue; host or cells: rat brain
Sequence (Q07009 20-700 limits assumed): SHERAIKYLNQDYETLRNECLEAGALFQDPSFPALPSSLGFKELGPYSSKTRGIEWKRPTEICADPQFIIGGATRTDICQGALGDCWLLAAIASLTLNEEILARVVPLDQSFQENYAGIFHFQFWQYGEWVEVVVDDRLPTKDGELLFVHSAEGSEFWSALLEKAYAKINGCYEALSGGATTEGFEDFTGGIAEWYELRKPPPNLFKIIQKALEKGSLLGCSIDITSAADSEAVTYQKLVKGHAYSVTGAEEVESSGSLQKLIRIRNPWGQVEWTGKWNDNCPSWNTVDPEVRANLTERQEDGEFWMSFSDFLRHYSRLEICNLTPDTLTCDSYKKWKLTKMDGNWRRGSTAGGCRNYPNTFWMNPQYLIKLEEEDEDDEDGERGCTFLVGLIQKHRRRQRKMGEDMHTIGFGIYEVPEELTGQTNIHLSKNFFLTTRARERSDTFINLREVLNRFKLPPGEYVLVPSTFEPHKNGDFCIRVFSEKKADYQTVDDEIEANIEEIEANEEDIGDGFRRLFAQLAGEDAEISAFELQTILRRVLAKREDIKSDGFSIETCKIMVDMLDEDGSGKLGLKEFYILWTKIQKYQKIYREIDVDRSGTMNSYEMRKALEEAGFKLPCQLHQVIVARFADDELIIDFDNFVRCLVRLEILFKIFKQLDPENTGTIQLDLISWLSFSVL
Sequence (Q64537 whole entry partner): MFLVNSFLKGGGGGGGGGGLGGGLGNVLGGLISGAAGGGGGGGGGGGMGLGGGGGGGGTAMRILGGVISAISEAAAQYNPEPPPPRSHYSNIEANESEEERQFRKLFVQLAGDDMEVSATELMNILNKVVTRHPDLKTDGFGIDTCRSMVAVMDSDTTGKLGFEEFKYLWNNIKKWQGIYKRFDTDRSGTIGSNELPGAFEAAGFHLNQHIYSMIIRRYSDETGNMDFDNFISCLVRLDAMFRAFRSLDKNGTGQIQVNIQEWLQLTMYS
ASSAY COMMENT: Thiol protease inhibitory activity against m-calpain purified from rat brain
Type: biochemical
RUN CONDITIONS: Table 4; rat brain enzyme; read-out: Inhibitory activity against m-calpain IC50
Where a name gives a salt, the structure may show the parent alone.
Flag rule - IC50 less than 2000 nM flags met; the remaining entries get not met.

Could you please tell me whether IC50 recorded for `CC(C)C[C@H](NS(=O)(=O)c1ccc(Cl)cc1)C(=O)N[C@@H](C(C)C)[C@@H](O)c1c(-c2ccccc2)c1=O` is less than 2000 nM?
met

Is the reported IC50 for CC(C)C[C@H](NC(=O)c1ccc2ccccc2n1)C(=O)N[C@@H](C(C)C)[C@@H](O)c1c(-c2ccccc2)c1=O [74 (No. 219), hydrochloride] strictly below 2000 nM?
met

Could you please tell me whether IC50 recorded for `CC(C)C[C@H](NC(=O)COc1ccc(Cl)cc1)C(=O)N[C@@H](C(C)C)[C@@H](O)c1c(-c2ccccc2)c1=O` is less than 2000 nM?
met

Please indicate whether the reported IC50 of `COC(=O)c1ccc(C(=O)N[C@@H](CC(C)C)C(=O)N[C@@H](C(C)C)[C@@H](O)c2c(-c3ccccc3)c2=O)cc1` is strictly below 2000 nM.
met

New cases:
Find out if reported IC50 for `CC(C)C[C@H](NC(=O)[C@H](Cc1ccccc1)NC(=O)OCc1ccccc1)C(=O)N[C@@H](C(C)C)[C@@H](O)c1c(-c2ccccc2)c1=O` is less than 2000 nM
met

Consider CC(C)C[C@H](NC(=O)OCc1ccccc1)C(=O)N[C@@H](Cc1ccccc1)C(O)c1cc1=O (some centres unmarked) . Does its IC50 lie strictly below 2000 nM?
not met

* * *

TARGET SYSTEM: m-calpain (Rattus norvegicus)
Construct: m-calpain was purified from rat brain; from tissue; host or cells: rat brain
ASSAY COMMENT: Thiol protease inhibitory activity against m-calpain purified from rat brain
Type: biochemical
RUN CONDITIONS: Table 4; rat brain enzyme; read-out: Inhibitory activity against m-calpain IC50
pIC50: −log10 of the molar value.
# pIC50 >= 6 gives True, anything below gives False

Identify whether the reported pIC50 of the following compound is 6 or greater: CC(C)C[C@H](NC(=O)c1ccncc1)C(=O)N[C@@H](C(C)C)[C@@H](O)c1c(-c2ccccc2)c1=O [72 (No. 213)]
True

***
Dear colleague, could you confirm whether CC(C)C[C@H](NC(=O)CSc1ccccc1)C(=O)N[C@@H](C(C)C)[C@@H](O)c1c(-c2ccccc2)c1=O [56 (No. 168)] has pIC50 at or above 6?
False

Given the entry COc1ccccc1OCC(=O)N[C@@H](CC(C)C)C(=O)N[C@@H](C(C)C)[C@@H](O)c1c(-c2ccccc2)c1=O [53 (No. 161)] , answer whether its pIC50 meets or surpasses 6.
False

* * *

TARGET SYSTEM: m-calpain (Rattus norvegicus, UniProt Q07009)
Construct: m-calpain was purified from rat brain; from tissue; host or cells: rat brain
ASSAY COMMENT: Thiol protease inhibitory activity against m-calpain purified from rat brain
Format: biochemical
RUN CONDITIONS: Table 4; rat brain enzyme; read-out: Inhibitory activity against m-calpain IC50
Procedure: Inhibitory activity against papain (P-3125, Sigma) and cathepsin B (C-6286, Sigma) was assayed according to the method described in a literature [Biochemical Journal, 201, 189 (1982)]. […]
Criterion: IC50 strictly less than 2 µM. Met: t. Not met: f.

Decide: IC50 of CC(C)C[C@H](NC(=O)COc1cccc(Cl)c1Cl)C(=O)N[C@@H](C(C)C)[C@@H](O)c1c(-c2ccccc2)c1=O [52 (No. 155)] strictly below 2 µM?
t

More entries:
I'd appreciate it if you could check whether CC(C)C[C@H](NS(=O)(=O)c1ccc(F)cc1)C(=O)N[C@@H](C(C)C)[C@@H](O)c1c(-c2ccccc2)c1=O [83 (No. 245)] has IC50 smaller than 2 µM.
f

A record lists CC(C)C[C@H](NS(=O)(=O)Cc1ccccc1)C(=O)N[C@@H](C(C)C)[C@H](O)c1c(-c2ccccc2)c1=O [79 (No. 237)] . Is its IC50 below 2 µM?
t

# strict comparison: is reported IC50 < 2 µM? input = CC(C)C[C@H](NC(=O)COCc1ccccc1)C(=O)N[C@@H](C(C)C)[C@@H](O)c1c(-c2ccccc2)c1=O [54 (No. 166)]
t

Does the reported IC50 of the following molecule sit strictly below 2 µM? CC(C)C[C@H](NC(=O)Cc1ccccc1)C(=O)N[C@@H](C(C)C)[C@@H](O)c1c(-c2ccccc2)c1=O [41 (No. 132)]
t

IC50 under 2 µM? Item: CC(=O)CCC(=O)N[C@@H](CC(C)C)C(=O)N[C@@H](C(C)C)[C@@H](O)c1c(-c2ccccc2)c1=O [44 (No. 137)]
f

Is IC50 strictly under 2 µM for the entry CC(C)C[C@H](NC(=O)CCOc1ccccc1)C(=O)N[C@@H](C(C)C)[C@@H](O)c1c(-c2ccccc2)c1=O [55 (No. 167)] ?
t

I'd appreciate it if you could check whether CC(C)C[C@H](NC(=O)c1cccs1)C(=O)N[C@@H](C(C)C)[C@@H](O)c1c(-c2ccccc2)c1=O [68 (No. 200)] has IC50 smaller than 2 µM.
f

For CC(C)COC(=O)N[C@@H](CC(C)C)C(=O)N[C@@H](C(C)C)[C@H](O)c1c(-c2ccccc2)c1=O [21 (No. 72)] , is the recorded IC50 below the cut-off of 2 µM?
f

Please indicate whether the reported IC50 of CC(C)C[C@H](NS(=O)(=O)c1ccccc1)C(=O)N[C@@H](C(C)C)[C@@H](O)c1c(-c2ccccc2)c1=O [80 (No. 239)] is strictly below 2 µM.
t

Take the molecule CC(C)COC(=O)N[C@@H](CC(C)C)C(=O)N[C@@H](C(C)C)[C@@H](O)c1c(-c2ccccc2)c1=O [20 (No. 72)] and say whether its IC50 is less than 2 µM.
t

A record lists CC(C)C[C@H](NC(=O)CCC(=O)c1ccccc1)C(=O)N[C@@H](C(C)C)[C@@H](O)c1c(-c2ccccc2)c1=O [45 (No. 140)] . Is its IC50 below 2 µM?
t

* * *

Entries annotated with measured IC50
TARGET SYSTEM: m-calpain (Rattus norvegicus)
Construct: m-calpain was purified from rat brain; from tissue; host or cells: rat brain
ASSAY COMMENT: Thiol protease inhibitory activity against m-calpain purified from rat brain
Assay type: biochemical
RUN CONDITIONS: Table 4; rat brain enzyme; read-out: Inhibitory activity against m-calpain IC50
Where a name gives a salt, the structure may show the parent alone.
// units = µM; emit number, no label

State its IC50 on m-calpain (Rattus norvegicus): COc1ccc(S(=O)(=O)N[C@@H](CC(C)C)C(=O)N[C@@H](C(C)C)[C@@H](O)c2c(-c3ccccc3)c2=O)cc1 [87 (No. 257)]
1

Please state recorded IC50 (tested on m-calpain (Rattus norvegicus)) of CC(C)C[C@H](NS(=O)(=O)Cc1ccccc1)C(=O)N[C@@H](C(C)C)[C@@H](O)c1c(-c2ccccc2)c1=O [78 (No. 237)]
0.44

Notebook: pull reported IC50 for m-calpain (Rattus norvegicus), entry CC(C)C[C@H](NC(=O)OCc1ccccn1)C(=O)N[C@@H](C(C)C)[C@@H](O)c1c(-c2ccccc2)c1=O [29 (No. 97), hydrochloride]
1.7

Recorded IC50 for CC(C)C[C@H](NS(=O)(=O)c1cccc2ccccc12)C(=O)N[C@@H](C(C)C)[C@@H](O)c1c(-c2ccccc2)c1=O [88 (No. 259)] with m-calpain (Rattus norvegicus), please?
0.65

For m-calpain (Rattus norvegicus), provide IC50 of CC(C)C[C@H](NC(=O)OCC1CCCCC1)C(=O)N[C@@H](C(C)C)[C@@H](O)c1c(-c2ccc(F)cc2)c1=O [105 (No. 311)] please.
1.5
